target: Albumin (Bos taurus); assay: compounds binding labelled BSA control protein – biochemical, small-molecule microarray, Alexa647 label, 635/667 nm fluorescence, artefact control for SMM control protein annotation, profiling panel (AID 1118); details: BSA-A647 binding, fluorescence 635 nm, higher = more signal;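 note: score merges 667 nm emission intensity and signal-to-noise per printed compound spot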
# Lookup of reported composite z-score keyed by entry
MEASURED_PROPERTY: composite z-score

1) CCOC(=O)C[C@H]1[C@H](OC(=O)c2ccccc2-c2ccccc2)[C@@H](NC(=O)c2ccc3ccccc3c2)c2cc(OCCCO)ccc2N1C(=O)Cc1ccc(OC)cc1 : 0.227
2) COc1cc(C(O)C2C=CC3C(=O)N(c4ccccc4)C(=O)C3N2Nc2ccccc2)cc(OC)c1OC (configuration not stated) : 0.993
3) C=C(CCCC)/C(=C/C[C@H](OC(=O)c1ccncc1)c1ccccc1OCCO)c1cc(C(=O)OC)ccc1OC : -0.172
4) COc1ccc([Si](C)(C)[C@@H]2[C@@H](CC(=O)N3CCC[C@H]3CO)O[C@]3(C(=O)N(Cc4ccc(N5CCOC5=O)cc4)c4ccccc43)[C@H]2C)cc1 : 0.746
5) O=C(NCC(O)CO)[C@@]1(CCS(=O)(=O)c2ccccc2)N=C(c2ccc(OCCCO)cc2)O[C@H]1c1ccccc1 (some centres not stated) : 0.905
6) Cc1ccc(C(C)CC(O)C2C=CC3C(=O)N(C)C(=O)C3N2Nc2ccccc2)o1 (configuration not stated) : 0.264
7) O=C1NC(=O)C2C1C=CC(C(O)c1ccc(B(O)O)cc1)N2Nc1ccc(Cl)cc1Cl (configuration not stated) : 0.0179
8) CC(C)(C)N1CC=CC23O[C@@H]4/C=C\CCCOC(=O)C4[C@H]2C(=O)N(CCCCCO)[C@@H]3C1=O (some centres not stated) : -1.58
9) CC(C)C(CO)N1C(=O)[C@@H]2C3C(=O)OCCC/C=C\[C@H]3OC23C=CCN(Cc2ccccc2)C(=O)[C@@H]13 (some centres not stated) : -1.25
10) COC(=O)[C@@]1(Cc2ccc(F)cc2)[C@H]2c3cc(C(=O)N(C)C)n(CCc4ccc(O)c(O)c4)c3C[C@H]2CN1C(=O)c1ccccc1 : 0.508
11) C=CCOC(=O)[C@H]1[C@@H]2C(=O)O[C@@H](c3ccccc3)[C@@H](c3ccccc3)N2[C@@H](c2ccc(OCCOC(=O)[C@@H]3C[C@@H]4C(=O)N[C@@H](CCCC[N+](C)(C)C)C(=O)N4[C@@H]3c3ccc(O)cc3)cc2)[C@]12C(=O)Nc1ccc(I)cc12 : -0.691
12) COC(=O)[C@@]1(Cc2ccc(OC)cc2)[C@H]2c3cc(C(=O)N(C)C)[nH]c3C[C@H]2CN1C(=O)c1ccccc1 : 0.0277
13) C=CCOC(=O)[C@@H]1[C@H]2C(=O)O[C@H](c3ccccc3)[C@H](c3ccccc3)N2[C@H](c2ccc(OCCOC(=O)[C@H]3C[C@H]4C(=O)N[C@@H](CCCCN(C)C)C(=O)N4[C@H]3c3ccc(O)cc3)cc2)[C@@]12C(=O)Nc1ccc(I)cc12 : -0.839
14) C=CCC(OC(C)=O)[C@@H]1[C@@H](N(Cc2cccc3ccccc23)C(=O)Cc2ccc(OC)cc2)c2cc(OCCCO)ccc2N1C(=O)c1ccc2ccccc2c1 (some centres not stated) : 0.226
15) COCC(=C=CC[C@H](O)c1ccccc1OCCO)C[C@H](O)COCc1ccccc1 : 0.816
16) COCCOC(=O)N1C(=O)[C@@]2(c3cc(C#CCCO)ccc31)[C@H](C(N)=O)[C@H]1C(=O)O[C@H](c3ccccc3)[C@H](c3ccccc3)N1[C@@H]2c1ccccc1OCCO : 0.69
17) O=C(NCC(O)CO)C1N=C(c2ccc(OCCCO)cc2)N(c2ccccc2)O1 (configuration not stated) : -0.138
18) CCOC(=O)C[C@H]1[C@H](OC(=O)c2cc3ccccc3oc2=O)[C@@H](NC(=O)CC(C)C)c2cc(OCCCO)ccc2N1C(=O)Cc1ccc(OC)cc1 : 0.136
19) CCOc1cc(C(O)C2C=CC3C(=O)N(c4ccccc4)C(=O)C3N2Nc2ccccc2F)ccc1O (configuration not stated) : 0.799
20) [N-]=[N+]=NCc1ccccc1[C@@H]1OC(c2ccc(OCCCO)cc2)=N[C@]1(Cc1ccccc1N=[N+]=[N-])C(=O)O : 1
21) CC(C)C(=C=CC[C@H](O)c1ccccc1OCCO)C[C@H](O)COCc1ccccc1 : 0.435
22) CN(C)C(=O)[C@]1(Cc2ccccc2)N=C(c2ccc(OCCCO)cc2)O[C@@H]1c1ccccc1CN=[N+]=[N-] : 0.981
23) COCCOC(=O)N1C(=O)[C@@]2(c3cc(C#CCCO)ccc31)[C@H](c1ccccc1OCCO)N1[C@H](c3ccccc3)[C@H](c3ccccc3)OC(=O)[C@H]1[C@@H]2C(N)=O : -0.0956
24) CC(C)N1C(=O)C[C@@](C(=O)NCCN2CCOCC2)(c2ccc([N+](=O)[O-])cc2)[C@H]1c1ccc(CO)cc1 : 0.408
25) O=C(NC1CC1)[C@@H]1c2ccccc2C(=O)N(CC23CC4CC(CC(C4)C2)C3)[C@H]1c1ccc(CO)cc1 : 0.654
26) CC(C)C[C@@H]1NC(=O)[C@@]23C(=O)N[C@@H](Cc4ccccc4)C2[C@H](C)[C@@]2(C)O[C@H]2C3/C=C/C/C=C\CNC(=O)CNC1=O (some centres not stated) : 0.0829
27) COc1ccc(C(O)C2C=CC3C(=O)N(C)C(=O)C3N2N(c2ccccc2)c2ccccc2)cc1 (configuration not stated) : 0.86

----------
experiment: JC-1 mitochondrial signal, unstimulated myeloma cells – cell-based, JC-1 fluorescence, RPMI8226, 24 h, 100 nL compound, profiling panel (AID 1169); conditions: JC-1 mitochondrial potential fluorescence, higher = more signal; note: test concentration not given here
MEASURED_PROPERTY: z-score

1. O=C1C2C=CC(C(O)c3c(F)cccc3Cl)N(Nc3ccc([N+](=O)[O-])cc3)C2C(=O)N1c1ccccc1 (stereo unspecified) : -0.209
2. CC(C)c1nc2cc(Br)ccc2c(=O)o1 : 0.593
3. C=C(COC)/C(=C/C[C@@H](OC(C)=O)c1ccccc1OCCO)c1cnc2ccccc2c1 : 0.328
4. CC(C)[Si](C#CCCc1ccccc1)(O[C@H](c1ccccc1)c1cn(Cc2ccccc2)nn1)C(C)C : -0.631
5. CC(C)C[C@@H]1NC(=O)[C@@H]2C[C@H](C(=O)NCCCCCCNC(=O)CS)[C@H](c3cccc(OCCO)c3)N2C1=O : -0.217
6. CC(C)(C)N1CC=CC23O[C@@H]4/C=C\CCCOC(=O)C4[C@H]2C(=O)N(CCCO)[C@@H]3C1=O (stereo partly specified) : 0.233
7. COC(=O)C(CC#Cc1ccc2c(c1)[C@]1(C(=O)N2)[C@H](C(=O)N2CCc3cc(OC)c(OC)cc3C2)[C@H]2C(=O)O[C@H](c3ccccc3)[C@H](c3ccccc3)N2[C@@H]1c1ccccc1OCCO)C(=O)OC : -0.839
8. COC(=O)[C@@]1(Cc2ccc(F)cc2)[C@H]2c3cc(C(=O)N4CCCC4)n(CCc4ccccn4)c3C[C@H]2CN1C(=O)c1ccccc1 : -0.815
9. CN(C)c1ccc(C(O)C2C=CC3C(=O)N(Cc4ccccc4)C(=O)C3N2n2cnnc2)cc1 (stereo unspecified) : -0.203
10. CCC(CC)C(O)C1C=CC2C(=O)N(c3ccccc3)C(=O)C2N1Nc1ccccc1F (stereo unspecified) : -0.231
11. CC(C)N1C(=O)c2ccccc2[C@](C)(C(=O)NCC(F)(F)F)[C@@H]1c1ccc(CO)cc1 : 0.261
12. [N-]=[N+]=NCc1ccccc1[C@@H]1OC(c2ccc(OCCCO)cc2)=N[C@]1(Cc1ccccc1N=[N+]=[N-])C(=O)O : -1.11
13. C=CCC(OC(C)=O)[C@@H]1[C@@H](N(Cc2ccc(-c3ccccc3)cc2)C(=O)c2cccc3ccccc23)c2cc(OCCCO)ccc2N1C(=O)Cc1ccc(OC)cc1 (stereo partly specified) : 0.78
14. CCOC(=O)C1=CCC(c2cc3ccccc3[nH]2)N(CCN2CC(C(=O)OCC)=CCC2c2cc3ccccc3[nH]2)C1 (stereo unspecified) : -0.111
15. O=C1O[C@H](Cc2ccccc2)[C@@H]2[C@H]3C=CCCC=C3CN2[C@H]1Cc1ccc(O)cc1 : -1.05
16. CN1C(=O)C2C(C3CC3)C=C3CN(Cc4cccc(Cl)c4)[C@@H]([C@@H](O)Cc4ccccc4)C3C2C1=O (stereo partly specified) : -0.426

----------
experiment: probe aShh binding to arrayed compounds – biochemical, biotinylated probe, 635/667 nm fluorescence, primary screen (AID 1114); details: small-molecule microarray, higher = more signal;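 note: probe is biotin-labelled aShh protein from a stem cell growth factor screen; measures binding of labelled protein to compounds printed on the slide; score merges feature fluorescence at 667 nm with signal-to-noise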
This listing pairs compounds with measured composite z-score.
MEASURED_PROPERTY: composite z-score

1. NCCCCCCNC(=O)[C@@H]1C[C@@H]2C(=O)N3CCC[C@H]3C(=O)N2[C@@H]1c1cccc(OCCO)c1 : -0.0035
2. COC(=O)C(CC#Cc1ccc2c(c1)[C@]1(C(=O)N2)[C@H](C(=O)N2CCc3cc(OC)c(OC)cc3C2)[C@H]2C(=O)O[C@H](c3ccccc3)[C@H](c3ccccc3)N2[C@@H]1c1ccccc1OCCO)C(=O)OC : -0.0289
3. COCCOC(=O)N1C(=O)[C@@]2(c3cc(C#CCC(C(=O)OC)C(=O)OC)ccc31)[C@H](C(=O)Nc1nc3ccccc3s1)[C@H]1C(=O)O[C@H](c3ccccc3)[C@H](c3ccccc3)N1[C@@H]2c1ccc(OCCO)cc1 : 0.0043
4. CN1C(=O)C2C=CC(C(O)c3ccc(-c4ccccc4)s3)N(NC(=O)OC(C)(C)C)C2C1=O (stereo unspecified) : -0.279
5. CCCCC(O)C1C=CC2C(=O)N(c3ccccc3)C(=O)C2N1Nc1ccc(C#N)cc1 (stereo unspecified) : 0.337
6. CC(C)C[C@@H]1NC(=O)[C@@]23C(=O)N[C@@H](Cc4ccccc4)C2[C@H](C)[C@@]2(C)O[C@H]2C3/C=C/C/C=C\CNC(=O)CNC1=O (stereo partly specified) : -0.138
